# assay procedure: Acute toxicity of test compounds (oral LD50)
# study conditions: mouse, in vivo, male ICR mice, 0.2% CMC-Na suspension, dead mice counted for 14 days, read-out: LD50 of Test Compound (column head prints ED50)
Please provide measured LD50 at 336 h for the entries that follow.

Query block: Note LD50 at 336 h for the compound shown: CC(C)OC(=O)C(C(=O)Nc1nncs1)=C1SCS1
Result block: > 5000 mg/kg

Query block: Note LD50 at 336 h for the compound shown: CC(C)OC(=O)C(C(=O)Nc1ccccn1)=C1SCS1
Result block: > 5000 mg/kg

Query block: Note LD50 at 336 h for the compound shown: CC(C)OC(=O)C(C(=O)Nc1nccs1)=C1SCS1
Result block: > 5000 mg/kg

Query block: Note LD50 at 336 h for the compound shown: CC(C)OC(=O)C(C(N)=O)=C1SCS1
Result block: < 5000 mg/kg

Query block: Note LD50 at 336 h for the compound shown: Cc1csc(NC(=O)C(C(=O)OC(C)C)=C2SCS2)n1
Result block: > 5000 mg/kg

====

# System: serum ALT increase induced by CCl4
# assay procedure: Determination of 50% effective dose (ED50) against CCl4-induced serum ALT increase
# Assay type: in vivo
# study conditions: Mus musculus; mice, oral 50, 25, 12.5 or 6.25 mg/kg, 6 h before CCl4; serum ALT 24 h after CCl4; estimated from dose-response curves; read-out: ED50 (50% effective dose of test compound)
endpoint: ED50

Query block: Note ED50 for the molecule shown: CC(C)OC(=O)C(C(=O)Nc1nc(-c2ccccc2)cs1)=C1SCS1
Result block: > 50 mg/kg

Query block: Note ED50 for the molecule shown: CC(C)OC(=O)C(C(N)=O)=C1SCS1
Result block: > 50 mg/kg

Query block: Note ED50 for the molecule shown: CC(C)OC(=O)C(C(=O)Nc1nccs1)=C1SCS1
Result block: < 6.25 mg/kg

Query block: Note ED50 for the molecule shown: CC(C)OC(=O)C(C(=O)Nc1ccccc1)=C1SCS1
Result block: 7 mg/kg

Query block: Note ED50 for the molecule shown: CC(C)OC(=O)C(C(=O)Nc1ccc(C(F)(F)F)cc1)=C1SCCS1
Result block: < 50 mg/kg

Query block: Note ED50 for the molecule shown: CC(C)OC(=O)C(C(=O)Nc1ccc(C(F)(F)F)cc1)=C1SCS1
Result block: 6.25 mg/kg

Query block: Note ED50 for the molecule shown: CC(C)OC(=O)C(C(=O)NCc1ccccc1)=C1SCS1
Result block: 10 mg/kg

====

Please provide measured ED50 for the entries that follow.
# Test system: serum ALT increase induced by CCl4
# assay procedure: Determination of 50% effective dose (ED50) against CCl4-induced serum ALT increase
# Format: in vivo
# study conditions: Mus musculus; mice, oral 50, 25, 12.5 or 6.25 mg/kg, 6 h before CCl4; serum ALT 24 h after CCl4; estimated from dose-response curves; read-out: ED50 (50% effective dose of test compound)

Query block: Note ED50 for the compound shown: Cc1csc(NC(=O)C(C(=O)OC(C)C)=C2SCCS2)n1
Result block: < 50 mg/kg

Query block: Note ED50 for the compound shown: Cc1csc(NC(=O)C(C(=O)OC(C)C)=C2SCS2)n1
Result block: < 6.25 mg/kg

Query block: Note ED50 for the compound shown: CC(C)OC(=O)C(C(=O)Nc1nncs1)=C1SCS1
Result block: < 6.25 mg/kg

Query block: Note ED50 for the compound shown: CC(C)OC(=O)C(C(=O)Nc1ccccn1)=C1SCCS1
Result block: < 50 mg/kg

Query block: Note ED50 for the compound shown: CC(C)OC(=O)C(C(=O)Nc1ccccn1)=C1SCS1
Result block: 10 mg/kg
